Provenance of the data: patent US20120329787A1

System: Alternaria solani
measurementNotes: Test B: tomato early blight, spray on tomato seedlings the day before inoculation
Format: in vivo
conditionSummary: 200 ppm test suspension
Test B rating (100 = 100% disease control, 0 = no disease control): recorded values
assayEndpoint: Test B rating (100 = 100% disease control, 0 = no disease control) (%)

>>> quantitativeresult("COc1cc(OC)cc(-c2c(-c3ccccc3F)c(C)oc(=O)c2-c2ccccc2)c1 [Compound 26]")
93
>>> quantitativeresult("COc1cc(OC)cc(-c2c(-c3ccccc3F)noc(=O)c2-c2ccc(F)cc2F)c1 [Compound 21]")
0
>>> quantitativeresult("COc1cc(OC)c(Cl)c(-c2c(-c3c(F)cc(F)cc3F)c(C)oc(=O)c2C)c1Cl [Compound 59]")
0
>>> quantitativeresult("Cc1noc(=O)c(-c2c(F)ccc(F)c2F)c1-c1ccc(Cl)cc1 [Compound 6]")
99
>>> quantitativeresult("COc1cccc(-c2c(-c3ccccc3F)c(C)oc(=O)c2-c2ccccc2)c1 [Compound 28]")
0
>>> quantitativeresult("COc1cc(OC)c(Cl)c(-c2c(-c3c(F)cccc3F)c(C)oc(=O)c2C)c1Cl [Compound 53]")
0
>>> quantitativeresult("COc1cc(OC)cc(-c2c(-c3c(F)cccc3F)c(C)oc(=O)c2C)c1 [Compound 51]")
0
>>> quantitativeresult("COc1cccc(-c2c(-c3ccc(F)cc3F)c(C)oc(=O)c2-c2ccccc2F)c1 [Compound 34]")
99

---

Test D rating (100 = 100% disease control, 0 = no disease control): recorded values
Test system: Rhizoctonia solani
measurementNotes: Test D: turf brown patch, spray on creeping bent grass seedlings the day before inoculation
Assay type: in vivo
conditionSummary: 200 ppm test suspension
assayEndpoint: Test D rating (100 = 100% disease control, 0 = no disease control) (%)

>>> quantitativeresult("Cc1noc(=O)c(-c2ccc(F)cc2Cl)c1-c1ccc(Br)cc1")
0
>>> quantitativeresult("COc1cc(OC)cc(-c2c(-c3ccccc3F)noc(=O)c2-c2ccc(F)cc2F)c1")
0
>>> quantitativeresult("COc1cc(OC)cc(-c2c(-c3ccccc3F)noc(=O)c2-c2c(F)cccc2F)c1")
8
>>> quantitativeresult("Cc1noc(=O)c(-c2c(F)cc(F)cc2F)c1-c1ccc(Cl)cc1")
78
>>> quantitativeresult("Cc1noc(=O)c(-c2cccc(F)c2)c1-c1c(F)cccc1F")
0
>>> quantitativeresult("Cc1noc(=O)c(-c2cccc(F)c2)c1-c1ccccc1")
0
>>> quantitativeresult("Cc1noc(=O)c(-c2ccc(F)cc2F)c1-c1ccc(Cl)cc1")
0
>>> quantitativeresult("Cc1noc(=O)c(-c2c(F)cc(F)cc2F)c1-c1ccc(Br)cc1")
90
>>> quantitativeresult("Cc1noc(=O)c(-c2c(F)cc(F)cc2F)c1-c1cccc(F)c1")
16

---

System: Botrytis cinerea
measurementNotes: Test A: tomato Botrytis, spray on tomato seedlings the day before inoculation
Assay type: in vivo
conditionSummary: 200 ppm test suspension
Test A rating (100 = 100% disease control, 0 = no disease control): recorded values
assayEndpoint: Test A rating (100 = 100% disease control, 0 = no disease control)

>>> result("Cc1ccc(-c2c(C)noc(=O)c2-c2c(F)cc(F)cc2F)cc1 [Compound 9]")
"90%"
>>> result("COc1cc(OC)cc(-c2c(-c3ccccc3F)noc(=O)c2-c2ccc(F)cc2F)c1 [Compound 21]")
"0%"
>>> result("Cc1noc(=O)c(-c2c(F)cccc2F)c1-c1ccc(Cl)cc1 [Compound 7]")
"100%"
>>> result("Cc1noc(=O)c(-c2c(F)cccc2F)c1-c1ccc(Br)cc1 [Compound 15]")
"0%"
>>> result("Cc1noc(=O)c(-c2cccc(F)c2)c1-c1ccccc1 [Compound 1]")
"0%"

---

System: Puccinia recondita f. sp. tritici
measurementNotes: Test H: wheat leaf rust, spray on wheat seedlings the day before inoculation
Assay type: in vivo
conditionSummary: 200 ppm test suspension, sprayed before inoculation
assayEndpoint: Test H rating (100 = 100% disease control, 0 = no disease control) (%)

>>> quantitativeresult("Cc1noc(=O)c(-c2c(F)cc(F)cc2F)c1-c1ccc(Cl)cc1")
98
>>> quantitativeresult("Cc1noc(=O)c(-c2c(F)cc(F)cc2F)c1-c1ccc(F)cc1")
98
>>> quantitativeresult("Cc1noc(=O)c(-c2cccc(F)c2)c1-c1ccccc1")
0
>>> quantitativeresult("Cc1noc(=O)c(-c2c(F)cc(F)cc2F)c1-c1ccc(Cl)c(F)c1")
0
>>> quantitativeresult("Cc1noc(=O)c(-c2c(F)cccc2F)c1-c1ccc(Cl)cc1")
99
>>> quantitativeresult("Cc1noc(=O)c(-c2cccc(F)c2)c1-c1c(F)cccc1F")
0
>>> quantitativeresult("COc1cccc(-c2c(-c3ccc(F)cc3F)c(C)oc(=O)c2-c2ccccc2F)c1")
100
>>> quantitativeresult("Cc1ccc(-c2c(C)noc(=O)c2-c2c(F)cc(F)cc2F)cc1")
96
>>> quantitativeresult("COc1cccc(-c2c(-c3ccccc3F)c(C)oc(=O)c2-c2ccccc2)c1")
99

---

Test C rating (100 = 100% disease control, 0 = no disease control): recorded values
Tested on: Phytophthora infestans
Type: in vivo
conditionSummary: 200 ppm test suspension; tomato seedlings
assayEndpoint: Test C rating (100 = 100% disease control, 0 = no disease control) (%)

>>> quantitativeresult("Cc1noc(=O)c(-c2cccc(F)c2)c1-c1ccccc1 [Compound 1]")
0
>>> quantitativeresult("COc1cc(OC)cc(-c2c(-c3ccccc3F)noc(=O)c2-c2c(F)cccc2F)c1 [Compound 22]")
0
>>> quantitativeresult("Cc1noc(=O)c(-c2cccc(F)c2)c1-c1c(F)cccc1F [Compound 4]")
8
>>> quantitativeresult("Cc1noc(=O)c(-c2ccc(Cl)cc2)c1-c1c(F)cccc1F [Compound 2]")
17
>>> quantitativeresult("Cc1noc(=O)c(-c2c(F)cccc2Cl)c1-c1ccc(Cl)cc1 [Compound 8]")
0
>>> quantitativeresult("Cc1noc(=O)c(-c2c(F)ccc(F)c2F)c1-c1ccc(Cl)cc1 [Compound 6]")
0
>>> quantitativeresult("Cc1noc(=O)c(-c2ccc(F)cc2F)c1-c1ccc(Cl)cc1 [Compound 13]")
0
>>> quantitativeresult("Cc1noc(=O)c(-c2c(F)cc(F)cc2F)c1-c1cccc(F)c1 [Compound 5]")
0
>>> quantitativeresult("Cc1noc(=O)c(-c2c(F)cc(F)cc2F)c1-c1ccc(Cl)cc1 [Compound 3]")
9

---

Tested on: Erysiphe graminis f. sp. tritici
measurementNotes: Test I: wheat powdery mildew, spray on wheat seedlings the day before inoculation
Assay type: in vivo
conditionSummary: 200 ppm test suspension
assayEndpoint: Test I rating (100 = 100% disease control, 0 = no disease control) (%)

>>> quantitativeresult("Cc1noc(=O)c(-c2c(F)cc(F)cc2F)c1-c1ccc(Cl)c(F)c1")
0
>>> quantitativeresult("COc1cc(OC)cc(-c2c(-c3ccccc3F)c(C)oc(=O)c2C)c1")
98
>>> quantitativeresult("COc1cc(OC)cc(-c2c(C)noc(=O)c2-c2c(F)cc(F)cc2F)c1")
99
>>> quantitativeresult("COc1cc(OC)cc(-c2c(-c3ccc(F)cc3Cl)c(C)oc(=O)c2C)c1")
99
>>> quantitativeresult("Cc1noc(=O)c(-c2c(F)cccc2F)c1-c1ccc(Br)cc1")
98
>>> quantitativeresult("COc1cccc(-c2c(-c3ccc(F)cc3F)c(C)oc(=O)c2-c2ccccc2F)c1")
90
>>> quantitativeresult("COc1cc(OC)cc(-c2c(C)oc(=O)c(C)c2-c2c(F)cc(OC)cc2F)c1")
100
>>> quantitativeresult("COc1cccc(-c2c(-c3ccc(F)cc3F)c(C)oc(=O)c2-c2ccccc2)c1")
55
>>> quantitativeresult("COc1cc(OC)cc(-c2c(-c3c(F)cc(OC)cc3F)c(C)oc(=O)c2-c2ccccc2F)c1")
79
>>> quantitativeresult("COc1cc(OC)cc(-c2c(-c3c(F)cccc3F)c(C)oc(=O)c2C)c1")
96
>>> quantitativeresult("Cc1noc(=O)c(-c2c(F)cc(F)cc2F)c1-c1ccc(Br)cc1")
99
>>> quantitativeresult("Cc1noc(=O)c(-c2c(F)cc(F)cc2F)c1-c1ccc(F)cc1")
100
>>> quantitativeresult("Cc1noc(=O)c(-c2cccc(F)c2)c1-c1c(F)cccc1F")
0
>>> quantitativeresult("Cc1oc(=O)c(-c2ccccc2F)c(-c2ccccc2Cl)c1-c1ccc(F)cc1F")
97
>>> quantitativeresult("Cc1noc(=O)c(-c2c(F)cc(F)cc2F)c1-c1cccc(F)c1")
20
>>> quantitativeresult("Cc1ccc(-c2c(C)noc(=O)c2-c2c(F)cc(F)cc2F)cc1")
96
>>> quantitativeresult("COc1cc(OC)cc(-c2c(-c3ccccc3F)c(C)oc(=O)c2-c2ccccc2)c1")
27
>>> quantitativeresult("COc1cc(F)c(-c2c(C)oc(=O)c(C)c2-c2c(Cl)c(OC)cc(OC)c2Cl)c(F)c1")
0
>>> quantitativeresult("Cc1noc(=O)c(-c2c(F)cccc2Cl)c1-c1ccc(Cl)cc1")
99
>>> quantitativeresult("Cc1noc(=O)c(-c2c(F)ccc(F)c2F)c1-c1ccc(Cl)cc1")
96
>>> quantitativeresult("Cc1noc(=O)c(-c2ccc(F)cc2F)c1-c1ccc(Cl)cc1")
99
>>> quantitativeresult("Cc1noc(=O)c(-c2ccc(Cl)cc2)c1-c1c(F)cccc1F")
92
>>> quantitativeresult("Cc1noc(=O)c(-c2cccc(F)c2)c1-c1ccccc1")
0
>>> quantitativeresult("Cc1noc(=O)c(-c2ccc(F)cc2Cl)c1-c1ccc(Br)cc1")
0
>>> quantitativeresult("COc1cc(F)c(-c2c(-c3cc(OC)cc(OC)c3Cl)c(C)oc(=O)c2C)c(F)c1")
99
>>> quantitativeresult("COc1cc(OC)c(Cl)c(-c2c(-c3c(F)cccc3F)c(C)oc(=O)c2C)c1Cl")
0
>>> quantitativeresult("COc1cc(OC)c(Cl)c(-c2c(-c3c(F)cc(F)cc3F)c(C)oc(=O)c2C)c1Cl")
90
>>> quantitativeresult("COc1cc(OC)cc(-c2c(-c3ccccc3F)noc(=O)c2-c2c(F)cccc2F)c1")
0
>>> quantitativeresult("Cc1noc(=O)c(-c2c(F)cc(F)cc2F)c1-c1ccc(Cl)cc1")
99
>>> quantitativeresult("Cc1noc(=O)c(-c2c(F)cc(F)cc2F)c1-c1ccc(C(F)(F)F)cc1")
98
>>> quantitativeresult("Cc1oc(=O)c(-c2ccccc2)c(-c2ccccc2Cl)c1-c1ccc(F)cc1F")
0
>>> quantitativeresult("COc1cc(OC)cc(-c2cc(=O)oc(C)c2-c2ccc(F)cc2Cl)c1")
100
>>> quantitativeresult("COc1cc(OC)cc(-c2c(-c3ccccc3F)noc(=O)c2-c2ccc(F)cc2F)c1")
0
>>> quantitativeresult("COc1cccc(-c2c(-c3ccccc3F)c(C)oc(=O)c2-c2ccccc2)c1")
64
>>> quantitativeresult("Cc1noc(=O)c(-c2c(F)cccc2F)c1-c1ccc(Cl)cc1")
100
>>> quantitativeresult("COc1cc(OC)cc(-c2c(-c3ccc(F)cc3F)c(C)oc(=O)c2-c2ccccc2)c1")
82
